Measured values drawn from ChEMBL document CHEMBL2311250 for this set.

assay: Half life in human liver microsomes; assay type: ADME, Microsome
For each record, check the reported half-life: if it is below 40 min write satisfied, else write not satisfied.

molecule: CN1CCC(NC(=O)c2cnc(Nc3cc(Cl)cc(Cl)c3)nc2NC2CCOCC2)CC1
qualitative label: satisfied
//
molecule: O[C@@H]1COC[C@H]1Nc1nc(Nc2cc(Cl)cc(Cl)c2)ncc1Br
qualitative label: satisfied
//
molecule: Cc1cc(-c2cnc(Nc3cc(Cl)cc(Cl)c3)nc2NC2CCC(N(C)C)CC2)on1 (centres undefined)
qualitative label: satisfied
//
molecule: CN1CCC(NC(=O)c2cnc(Nc3cc(Cl)cc(Cl)c3)nc2NC2CCC(N(C)C)CC2)CC1 (centres undefined)
qualitative label: not satisfied
//
molecule: O[C@@H]1COC[C@H]1Nc1nc(Nc2cc(Cl)cc(Cl)c2)ncc1-c1ccc(F)cc1
qualitative label: not satisfied

*Q* Strictly below 40 min in half-life? COc1ccccc1CNc1ncc(C(=O)NCCc2nnn[nH]2)c(NC2CCCC2)n1
*A* not satisfied

*Q* Hello, is half-life of the following molecule strictly smaller than 40 min? CN1CCC(NC(=O)c2cnc(NCc3cc(Cl)ccc3Cl)nc2NC2CCNCC2)CC1
*A* satisfied
